- System: AMBEL (Ragweed, Common)
- ASSAY_INFO: Preemergence herbicidal evaluation
- Assay type: in vivo, Ambrosia artemisifolia
- TEST_CONTEXT: rate 0.0625 kg/ha; rated 4-5 weeks after treatment; rating scale 0-9
- Text: Results of herbicide evaluation are expressed on a rating scale (0-9). The scale is based upon a visual observation of plant stand, vigor, malformation, size, chlorosis and overall plant appearance as compared with a control. […] The compounds evaluated are reported by compound number given in Example 37.
PROPERTY: Preemergence herbicidal rating AMBEL
Numbers only.

Study these solved cases before continuing.
> print(dat)
                            compound.string  measured
1  Cn1c(C(F)(F)F)cc(=O)n(-c2cc(N=C3SCC(=O)N3Cc3cc(Cl)cc(Cl)c3)c(Cl)cc2F)c1=O       0.0
2  Cn1c(C(F)(F)F)cc(=O)n(-c2cc(N=C3SCC(=O)N3Cc3ccc(C(F)(F)F)cc3)c(Cl)cc2F)c1=O       0.0
3  C=C1SC(=Nc2cc(-n3c(=O)cc(C(F)(F)F)n(C)c3=O)c(F)cc2Cl)N(CC(=O)OCC)C1=O       9.0

Your task in this section: give Preemergence herbicidal rating AMBEL for each listed record.
1. COc1cc(CN2C(=O)CSC2=Nc2cc(-n3c(=O)cc(C(F)(F)F)n(C)c3=O)c(F)cc2Cl)cc(OC)c1OC
2. Cn1c(C(F)(F)F)cc(=O)n(-c2cc(N=C3SCC(=O)N3Cc3ccccn3)c(Cl)cc2F)c1=O

Solution:
1: 0.0; 2: 0.0

====

Field: CYPIR herbicidal effect rating. Provide a value for each of the compounds that follow.
- System: CYPIR (Rice Flatsedge)
- ASSAY_INFO: Preemergence weed control under flooded paddy conditions
- Type: in vivo, Cyperus iria
- TEST_CONTEXT: 0.2500 kg/ha, rated 3-4 weeks after treatment

Study these solved cases before continuing.
> print(dat)
                                   compound      measurement.target                        property  measured
1  C#CCOC(=O)CC1SC(=Nc2cc(-n3c(=O)cc(C(F)(F)F)n(C)c3=O)c(F)cc2Cl)N(CC=C)C1=O (centres unmarked)  CYPIR (Rice Flatsedge)  CYPIR herbicidal effect rating       8.0
2  Cn1c(C(F)(F)F)cc(=O)n(-c2cc(/N=C3/SC(CC(=O)O)C(=O)N3CC(=O)O)c(Cl)cc2F)c1=O (centres unmarked)  CYPIR (Rice Flatsedge)  CYPIR herbicidal effect rating       0.0
3  C#CCOC(=O)CC1SC(=Nc2cc(-n3c(=O)cc(C(F)(F)F)n(C)c3=O)c(F)cc2Cl)N(C)C1=O (centres unmarked)  CYPIR (Rice Flatsedge)  CYPIR herbicidal effect rating       3.0

Your task in this section: give CYPIR herbicidal effect rating for each listed record.
1. C=CCN1C(=O)C(CC(=O)NC)SC1=Nc1cc(-n2c(=O)cc(C(F)(F)F)n(C)c2=O)c(F)cc1Cl (centres unmarked)
2. C=CCN1C(=O)C(CC(=O)NS(=O)(=O)c2ccccc2)SC1=Nc1cc(-n2c(=O)cc(C(F)(F)F)n(C)c2=O)c(F)cc1Cl (centres unmarked)
3. C=CCN1C(=O)C(CC(=O)NS(C)(=O)=O)SC1=Nc1cc(-n2c(=O)cc(C(F)(F)F)n(C)c2=O)c(F)cc1Cl (centres unmarked)
4. CN1C(=O)C(CC(=O)O)SC1=Nc1cc(-n2c(=O)cc(C(F)(F)F)n(C)c2=O)c(F)cc1Cl (centres unmarked)

Solution:
1. 9.0
2. 3.0
3. 6.0
4. 7.0

Your task in this section: give CYPIR herbicidal effect rating for each listed record.
1. CN1C(=O)C(CC(=O)NS(=O)(=O)c2ccccc2)SC1=Nc1cc(-n2c(=O)cc(C(F)(F)F)n(C)c2=O)c(F)cc1Cl (centres unmarked)
2. CCOC(=O)[C@H](Cc1ccccc1)N1C(=O)CSC1=Nc1cc(-n2c(=O)cc(C(F)(F)F)n(C)c2=O)c(F)cc1Cl
3. C=CCN1C(=O)C(CC(=O)OC)SC1=Nc1cc(-n2c(=O)cc(C(F)(F)F)n(C)c2=O)c(F)cc1Cl (centres unmarked)
4. C#CCOC(=O)CN1C(=O)CSC1=Nc1cc(-n2c(=O)cc(C(F)(F)F)n(C)c2=O)c(F)cc1Cl

Solution:
1. 2.0
2. 7.0
3. 7.0
4. 9.0
